- Assay procedure: Plasma AMG 232 pharmacokinetics (HPLC-MS, non-compartmental analysis)
- Assay type: in vivo, human
- Measurement setup: human, plasma, oral, 240 mg, Day 1, 240-mg dose expansion, Multiple Myeloma (n = 7–10); read-out: Cmax, mean (SD)
Measured metric: Cmax (ng/mL)

>>> recorded_result("CC(C)[C@@H](CS(=O)(=O)C(C)C)N1C(=O)[C@@](C)(CC(=O)O)C[C@H](c2cccc(Cl)c2)[C@H]1c1ccc(Cl)cc1 [AMG 232]")
1320

---

- Assay procedure: Plasma AMG 232 pharmacokinetics (HPLC-MS, non-compartmental analysis)
- Assay type: in vivo, human
- Measurement setup: human, plasma, oral, Day 7, Parts 1 and 2, All Doses (n = 76–97); read-out: Vz/F, mean (SD)
Measured metric: Vd/F

>>> recorded_result("CC(C)[C@@H](CS(=O)(=O)C(C)C)N1C(=O)[C@@](C)(CC(=O)O)C[C@H](c2cccc(Cl)c2)[C@H]1c1ccc(Cl)cc1")
"615 L"

---

- Assay procedure: Plasma AMG 232 pharmacokinetics (HPLC-MS, non-compartmental analysis)
- Type: in vivo, human
- Measurement setup: human, plasma, oral, 240 mg, Day 1, 240-mg dose expansion, ER + PR– Breast (n = 4); read-out: Cmax, mean (SD)
Measured metric: Cmax (ng/mL)

>>> recorded_result("CC(C)[C@@H](CS(=O)(=O)C(C)C)N1C(=O)[C@@](C)(CC(=O)O)C[C@H](c2cccc(Cl)c2)[C@H]1c1ccc(Cl)cc1")
1360

---

- Assay procedure: Plasma AMG 232 pharmacokinetics (HPLC-MS, non-compartmental analysis)
- Type: in vivo, human
- Measurement setup: human, plasma, oral, 300 mg, Day 1, dose escalation, 300 mg (n = 3–4); read-out: tmax, median (range)
Measured metric: Tmax (h)

>>> recorded_result("CC(C)[C@@H](CS(=O)(=O)C(C)C)N1C(=O)[C@@](C)(CC(=O)O)C[C@H](c2cccc(Cl)c2)[C@H]1c1ccc(Cl)cc1")
3

---

- Assay procedure: Plasma AMG 232 pharmacokinetics (HPLC-MS, non-compartmental analysis)
- Format: in vivo, human
- Measurement setup: human, plasma, oral, 60 mg, Day 1, dose escalation, 60 mg (n = 2–4); read-out: tmax, median (range)
Measured metric: Tmax (h)

>>> recorded_result("CC(C)[C@@H](CS(=O)(=O)C(C)C)N1C(=O)[C@@](C)(CC(=O)O)C[C@H](c2cccc(Cl)c2)[C@H]1c1ccc(Cl)cc1 [AMG 232]")
3

---

- Assay procedure: Plasma AMG 232 pharmacokinetics (HPLC-MS, non-compartmental analysis)
- Format: in vivo, human
- Measurement setup: human, plasma, oral, 240 mg, Day 7, 240-mg dose expansion, Total (n = 47–67); read-out: AUC24h, mean (SD)
Measured metric: AUC(0-t) (ng·h/mL)

>>> recorded_result("CC(C)[C@@H](CS(=O)(=O)C(C)C)N1C(=O)[C@@](C)(CC(=O)O)C[C@H](c2cccc(Cl)c2)[C@H]1c1ccc(Cl)cc1")
12300

---

- Assay procedure: Plasma AMG 232 pharmacokinetics (HPLC-MS, non-compartmental analysis)
- Assay type: in vivo, human
- Measurement setup: human, plasma, oral, 240 mg, Day 7, 240-mg dose expansion, Multiple Myeloma (n = 7–10); read-out: Cmax, mean (SD)
Measured metric: Cmax (ng/mL)

>>> recorded_result("CC(C)[C@@H](CS(=O)(=O)C(C)C)N1C(=O)[C@@](C)(CC(=O)O)C[C@H](c2cccc(Cl)c2)[C@H]1c1ccc(Cl)cc1")
1190
